- tested_system: Calcium-dependent protein kinase 1 (Plasmodium falciparum (isolate 3D7))
- assay_notes: PfCDPK1 kinase inhibitors, biochemical, TCAMS library (AID 1159585);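 also: inhibitors leave more ATP so luminescence rises with inhibition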
- experimental_context: recombinant PfCDPK1, Kinase-Glo ATP depletion luminescence
Here, each record is paired with measured IC50 data.

compound: O=C(NCCCN1CCOCC1)c1cccc(Nc2nccc(Nc3ccc(Oc4ccccc4)cc3)n2)c1
IC50: 180 nM
//
compound: NCC(NC(=O)c1ccc(-c2c[nH]c3ncccc23)s1)c1ccccc1 (stereo unspecified)
IC50: 29 nM
//
compound: CN(C)CCN(C)Cc1ccc(-c2ccc3c(Nc4ccc(Oc5ccccc5)cc4)ccnc3c2)o1
IC50: 718 nM
//
compound: Cc1cc(Nc2ncc(Cl)c(Nc3ccccc3C(N)=O)n2)n[nH]1
IC50: 76 nM
//
compound: CS(=O)(=O)Cc1ccc(Nc2nccc(-c3c(-c4cccc(C(=O)Nc5c(F)cccc5F)c4)nn4ccccc34)n2)cc1
IC50: 50 nM
//
compound: CNC(=O)c1ccccc1Nc1nc(Nc2ccc(N3CCOCC3)cc2)ncc1Cl
IC50: 144 nM
//
compound: NC(=O)c1ccccc1Nc1nc(Nc2cccc(N3CCN(CCO)CC3)c2)ncc1Cl
IC50: 58 nM
//
compound: c1ccc(Oc2ccc(Nc3ccnc(Nc4ccc(OCCN5CCCCC5)cc4)n3)cc2)cc1
IC50: 701 nM
//
compound: Oc1cccc(-c2cnc3ccc(NCc4ccc(F)cc4)nn23)c1
IC50: 115 nM
//
compound: CCn1c(-c2nonc2N)nc2c(-c3cccc(Cl)c3)ncc(OCCCNCCc3cnc[nH]3)c21
IC50: 138 nM
//
compound: CC(c1cccc(Nc2nccc(-c3c(-c4cccc(NC(=O)c5c(F)cccc5F)c4)nn4ncccc34)n2)c1)S(C)(=O)=O (stereo unspecified)
IC50: 95 nM

Reference source: PubChem BioAssay AID1159585
